Tested on: Bovine Phosphodiesterase
Assay: Phosphodiesterase inhibiting activity (cAMP substrate, remaining cAMP measured by HPLC)
Format: biochemical
Conditions: Concentration 0.78 µg/ml
Listing: Inhibiting Activity (%) of selected compounds
Kindly answer with a numeric value in %, unit omitted.

As a guide, the following entries are already answered.
Provide value of Inhibiting Activity (%) for this record tested with Bovine Phosphodiesterase: O=c1c(-c2ccc(Oc3cc(-c4coc5cc(O)cc(O)c5c4=O)ccc3O)cc2)coc2cc(O)cc(O)c12 [NA23063A]
43.5

Provide value of Inhibiting Activity (%) for this record tested with Bovine Phosphodiesterase: `O=c1c(-c2ccc(Oc3cc(-c4coc5cc(O)cc(O)c5c4=O)ccc3O)cc2)coc2cc(O)ccc12`
28.1

Provide value of Inhibiting Activity (%) for this record tested with Bovine Phosphodiesterase: O=c1c(-c2ccc(O)c(-c3cc(-c4coc5cc(O)cc(O)c5c4=O)ccc3O)c2)coc2cc(O)ccc12 [NA23063D]
30.7

Provide value of Inhibiting Activity (%) for this record tested with Bovine Phosphodiesterase: O=c1c(-c2ccc(O)c(-c3cc(-c4coc5cc(O)cc(O)c5c4=O)ccc3O)c2)coc2cc(O)cc(O)c12 [NA23063C]
57.7

Proceeding to the next compound to report its Inhibiting Activity (%).
Provide value of Inhibiting Activity (%) for this record tested with Bovine Phosphodiesterase: `O=c1c(-c2ccc(O)c(Oc3ccc(-c4coc5cc(O)cc(O)c5c4=O)cc3)c2)coc2cc(O)ccc12`
28.1

---

Test system: Bovine Phosphodiesterase
Assay: Phosphodiesterase inhibiting activity (cAMP substrate, remaining cAMP measured by HPLC)
Format: biochemical
Conditions: Concentration 6.25 µg/ml
Listing: Inhibiting Activity (%) of selected compounds
Kindly answer with a numeric value in %, unit omitted.

As a guide, the following entries are already answered.
I have this compound here, O=c1c(-c2ccc(O)c(-c3cc(-c4coc5cc(O)cc(O)c5c4=O)ccc3O)c2)coc2cc(O)cc(O)c12 [NA23063C] , and I need its recorded Inhibiting Activity (%).
83.8

I have this compound here, O=c1c(-c2ccc(Oc3cc(-c4coc5cc(O)cc(O)c5c4=O)ccc3O)cc2)coc2cc(O)cc(O)c12 [NA23063A] , and I need its recorded Inhibiting Activity (%).
79.5

I have this compound here, `O=c1c(-c2ccc(O)c(Oc3ccc(-c4coc5cc(O)cc(O)c5c4=O)cc3)c2)coc2cc(O)ccc12` , and I need its recorded Inhibiting Activity (%).
64.9

I have this compound here, O=c1c(-c2ccc(O)c(-c3cc(-c4coc5cc(O)cc(O)c5c4=O)ccc3O)c2)coc2cc(O)ccc12 [NA23063D] , and I need its recorded Inhibiting Activity (%).
61.0

Proceeding to the next compound to report its Inhibiting Activity (%).
I have this compound here, `O=c1c(-c2ccc(Oc3cc(-c4coc5cc(O)cc(O)c5c4=O)ccc3O)cc2)coc2cc(O)ccc12` , and I need its recorded Inhibiting Activity (%).
64.9

---

Listing: Inhibiting Activity (%) of selected molecules
Test system: Bovine Phosphodiesterase
Test: Phosphodiesterase inhibiting activity (cAMP substrate, remaining cAMP measured by HPLC)
Assay type: biochemical
Settings: Concentration 3.13 µg/ml

As a guide, the following entries are already answered.
I have this molecule here, `O=c1c(-c2ccc(O)c(Oc3ccc(-c4coc5cc(O)cc(O)c5c4=O)cc3)c2)coc2cc(O)ccc12` , and I need its recorded Inhibiting Activity (%).
56.3%

I have this molecule here, O=c1c(-c2ccc(O)c(-c3cc(-c4coc5cc(O)cc(O)c5c4=O)ccc3O)c2)coc2cc(O)ccc12 [NA23063D] , and I need its recorded Inhibiting Activity (%).
44.8%

I have this molecule here, O=c1c(-c2ccc(Oc3cc(-c4coc5cc(O)cc(O)c5c4=O)ccc3O)cc2)coc2cc(O)cc(O)c12 [NA23063A] , and I need its recorded Inhibiting Activity (%).
60.5%

I have this molecule here, O=c1c(-c2ccc(O)c(-c3cc(-c4coc5cc(O)cc(O)c5c4=O)ccc3O)c2)coc2cc(O)cc(O)c12 [NA23063C] , and I need its recorded Inhibiting Activity (%).
77.6%

Proceeding to the next molecule to report its Inhibiting Activity (%).
I have this molecule here, `O=c1c(-c2ccc(Oc3cc(-c4coc5cc(O)cc(O)c5c4=O)ccc3O)cc2)coc2cc(O)ccc12` , and I need its recorded Inhibiting Activity (%).
56.3%

Ref: patent EP0829477A1
